Assay Summary: gradient 5% acetonitrile 3 min, to 50% in 2 min, to 85% in 15 min, held 3 min, 100 µL/min
Condition Info: column: Zorbax Extend-C18 2.1 x 50 mm; eluents: water / acetonitrile, 0.1% formic acid
Reported Metric: RP-LC retention time (s)

- Cn1c(=O)c(N2CCC(NC(=O)NCc3ccccc3)CC2)nc2ccccc21: 799
- CN(c1nccn2c(=O)n(CC(=O)Nc3ccccc3F)nc12)C1CCCCC1: 748
- CCc1cccc(NC(=O)Cn2c(=O)c(CCC(=O)NCC(C)C)nc3ccccc32)c1: 880

(1) COCC1(O)CCOC2(CCN(Cc3ccc(C)c(C)c3)CC2)C1 (configuration not stated)
(2) Cc1cc(C)cc(Nc2nc(C)cc3nn(CC(=O)NCc4ccccc4)c(=O)n23)c1
Higher RP-LC retention time between 1 and 2 ? I would appreciate it if you answered with the label of your choice.
2
(2: 1080 s, 1: 627 s)

(I) COC(=O)c1cn(Cc2c(F)cccc2Cl)nc1S(=O)(=O)N(C)c1ccccc1
(II) COc1ccc(NC(=O)c2nnn(-c3ccc(C)c(F)c3)c2C)cc1Cl
Higher RP-LC retention time between I and II ? I would appreciate it if you answered with the label of your choice.
II

(A) Cn1c(=O)c2c(nc3n(CCN4CCOCC4)c(C(C)(C)C)cn23)n(C)c1=O
(B) CC(=O)Nc1ccc(-n2cnc(C(=O)N3CCN(c4cc(C)ccc4C)CC3)c2)nc1
Higher RP-LC retention time between A and B ? I would appreciate it if you answered with the label of your choice.
B
(B: 790 s, A: 552 s)

(I) COc1cc(NC(=O)C2CCCN(c3ncnc4c3nc3n4CCCCC3)C2)cc(OC)c1OC (configuration not stated)
(II) O=S(=O)(NCc1nc(-c2cccc(-c3csc(C4CC4)n3)c2)no1)c1ccccc1
// compare: I vs II , metric RP-LC retention time, want the smaller I would appreciate it if you answered with the label of your choice.
I
(I: 720 s, II: 1080 s)

====

Assay Summary: gradient 5% acetonitrile 3 min, to 50% in 2 min, to 85% in 15 min, held 3 min, 100 µL/min
Condition Info: column: Zorbax Extend-C18 2.1 x 50 mm; eluents: water / acetonitrile, 0.1% formic acid
Reported Metric: RP-LC retention time (s)

• CCOC(=O)c1cccc(NC(=O)N2CCC3(CC2)NC(=O)c2ccccc2O3)c1 = 804
• CCN1C(=O)C(CC(=O)NCC2CCCCC2)Sc2ncccc21 (stereo not drawn) = 808
• COc1ccc(CNC(=O)C2CCc3nc(N4CCOCC4)ncc3C2)cc1 (stereo not drawn) = 777

====

Assay Summary: gradient 5% acetonitrile 3 min, to 50% in 2 min, to 85% in 15 min, held 3 min, 100 µL/min
Condition Info: column: Zorbax Extend-C18 2.1 x 50 mm; eluents: water / acetonitrile, 0.1% formic acid
Reported Metric: RP-LC retention time (s)

- O=C(NCc1cccc(F)c1)C1CCN(c2nnc3ccc(Cl)cn23)CC1: 710
- Cc1nc(-c2ccc3c(c2)n(CC(=O)N2CCC4(CC2)OCCO4)c(=O)n3C(C)C)no1: 720
- Cc1ccc(N2CCN(CC(O)COc3ccccc3)CC2)cc1 (stereo not given): 698
- Cc1ccn2c(NC(=O)c3ccc(Cl)cc3)c(-c3ccc(F)cc3)nc2c1: 693
- Cc1cccc2nnc(N3CCC(C(=O)NCC4CCCCC4)CC3)n12: 709
